- Assay: Drug metabolism in human liver microsomes assessed as psilocin formation at 2.5 uM after 120 mins by LC-MS analysis
- Type: ADME, Microsome
- Setup conditions: 2 h
Parameter: Drug metabolism (µM)
Provide the reading as a plain figure in µM.

Solved cases (3 shown):
{"columns": ["Molecule", "Drug metabolism (µM)"],
 "data": [
  ["CC(C)[Si](C(C)C)(C(C)C)n1cc(CCN(C)C)c2c(OC(=O)OCC3CC3)cccc21", 0.186],
  ["CN(C)CCc1c[nH]c2cccc(O[Si](c3ccccc3)(c3ccccc3)C(C)(C)C)c12", 0],
  ["CCCCC(=O)OCOc1cccc2[nH]cc(CCN(C)C)c12", 0.132]
]}

Summary for this molecule, COc1ccc(C(=O)Oc2cccc3[nH]cc(CCN(C)C)c23)cc1 : Drug metabolism is 2.718

Measured Drug metabolism, CN(C)CCc1c[nH]c2cccc(OC(=O)OCC3CC3)c12 : 1.929

Drug metabolism in this record for CCOC(=O)[C@@H](C)NP(=O)(Oc1ccccc1)Oc1cccc2c1c(CCN(C)C)cn2[Si](C(C)C)(C(C)C)C(C)C (stereo not given in full) : 0.324

// field: Drug metabolism; key: CN(C)CCc1c[nH]c2cccc(O[Si](C)(C)C(C)(C)C)c12 ; value = 0.012

Lab book: Drug metabolism of CN(C)CCc1c[nH]c2cccc(OC(=O)c3cccc4c3OCCO4)c12 noted as 0.329

What the record says about CN(C)CCc1c[nH]c2cccc(OP3(=O)OCC(C)(C)CO3)c12 : Drug metabolism is 0

# Drug metabolism of CN(C)CCc1c[nH]c2cccc(OC(=O)c3ccc(Br)cc3)c12 = 1.31

----------
- Assay: Drug metabolism in human intestine microsomes assessed as psilocin formation at 2.5 uM after 120 mins by LC-MS analysis
- Type: ADME, Microsome
- Setup conditions: 2 h
# reported Drug metabolism; entries follow
Form entry: enter the amount, then its unit.

# count of solved cases: 2
{"columns": ["Molecule", "Drug metabolism"],
 "data": [
  ["CC(C)[Si](C(C)C)(C(C)C)n1cc(CCN(C)C)c2c(OCc3ccc(F)cc3)cccc21", "0 µM"],
  ["CCC(=O)OCOc1cccc2c1c(CCN(C)C)cn2C(=O)CC", "0 µM"]
]}

Record CCOC(=O)[C@@H](C)NP(=O)(Oc1ccccc1)Oc1cccc2c1c(CCN(C)C)cn2[Si](C(C)C)(C(C)C)C(C)C (some centres undefined) . Reported Drug metabolism: 0 µM

Looking up CN(C)CCc1c[nH]c2cccc(OC(=O)c3c(F)c(F)c(F)c(F)c3F)c12 , I see its Drug metabolism listed as 0.786 µM

----------
List of Drug metabolism values.
- Assay: Drug metabolism in human liver S9 fraction assessed as psilocin formation at 2.5 uM after 120 mins by LC-MS analysis
- Format: ADME, subcellular
- Setup conditions: s9, 2 h
Give the number; µM is assumed, so skip it.

Here's what some known entries look like.
{"columns": ["Compound structure string", "Drug metabolism [µM]"],
 "data": [
  ["CN(C)CCc1c[nH]c2cccc(OC(=O)c3cccc(C(=O)Oc4cccc5[nH]cc(CCN(C)C)c45)c3)c12", 0],
  ["CCCCC(=O)OCOc1cccc2[nH]cc(CCN(C)C)c12", 0.07],
  ["CN(C)CCc1c[nH]c2cccc(OC(=O)SCc3ccccc3)c12", 1.233],
  ["CN(C)CCc1c[nH]c2cccc(OC(=O)OCC(Cl)(Cl)Cl)c12", 0.133],
  ["CC(C)[Si](C(C)C)(C(C)C)n1cc(CCN(C)C)c2c(OCc3ccc(F)cc3)cccc21", 0]
]}

Form field Drug metabolism, entry CN(C)CCc1c[nH]c2cccc(OP3(=O)OCC(C)(C)CO3)c12 : 0.011

Lab note: measured Drug metabolism of CN(C)CCc1cn(C(=O)OCc2ccccc2)c2cccc(OC(=O)OCc3ccccc3)c12 was 0

For record CC(C)[Si](C(C)C)(C(C)C)n1cc(CCN(C)C)c2c(OC(=O)Sc3ccccc3)cccc21 the listed Drug metabolism is 0.133

Value source: ChEMBL document CHEMBL5335796
